So I've got a bunch of compounds here, and I need their melting point values.

-- ask Which melting point value is on record for CCOC(=O)c1cn2c(Cl)cccc2n1 ?
-- reply 143 to 145 °C

-- ask Which melting point value is on record for NC1C(=O)N(CCCO)c2ccccc2N(c2ccccc2)C1=O (stereo not given) ?
-- reply 55 to 58 °C

-- ask Which melting point value is on record for CCOC(=O)Cc1cc(Cl)cc(C(=O)c2ccc(Br)cc2)c1N ?
-- reply 92 to 94 °C

-- ask Which melting point value is on record for CCOC(=O)n1c(SCc2nccc(SCCN3CCOCC3)c2C)nc2ccccc21 ?
-- reply 145 to 147 °C

-- ask Which melting point value is on record for Nc1nc2cc3nc(NC(=O)CCl)sc3cc2s1 ?
-- reply 300 °C

-- ask Which melting point value is on record for CC(N=C(O)C(Cl)=C(Cl)C(=O)O)c1ccccc1 (stereo not given) ?
-- reply 62 to 65 °C

-- ask Which melting point value is on record for COC(=O)c1nccnc1Nc1ccccc1 ?
-- reply 72 to 75 °C

-- ask Which melting point value is on record for CCCCc1nc2c(N)nc3cccnc3c2n1CCNC(=O)c1cccc(O)n1 ?
-- reply 258 to 260 °C

-- ask Which melting point value is on record for CCCCCCCc1ccc(OC(=O)c2cc3c(s2)CC(CCCCC)C3)cc1 (stereo not given) ?
-- reply 64 °C

-- ask Which melting point value is on record for Cn1c(-c2ccc(-c3ccco3)cc2)cnc1[C@H](Cc1ccccn1)N(C=O)c1cc2cc(Cl)ccc2o1 ?
-- reply 144 to 146 °C

---

Parameter: melting point

-- ask Which melting point value is on record for COc1cc(C)cc(OC)c1CCCCCNC(=O)[C@@H](CCCCNC(=O)C=Cc1ccccc1)NC(=O)c1cc2ccccc2n1CC(=O)O ?
-- reply 172 °C

-- ask Which melting point value is on record for Cn1c(CC(=O)O)ccc1C(=O)c1ccc(Br)cc1 ?
-- reply 188 °C

-- ask Which melting point value is on record for COc1ccc(C2Sc3ccccc3NC(=O)C2CO)cc1 (stereo not given) ?
-- reply 217 °C

-- ask Which melting point value is on record for CCCc1ccc(OCCCc2cc3c(cc2O)CCO3)cc1 ?
-- reply 101 to 102 °C

-- ask Which melting point value is on record for O=c1oc2ccccc2c(O)c1C(Sc1ccc(Cl)cc1)c1cc(F)ccc1F (stereo not given) ?
-- reply 146 to 147 °C

-- ask Which melting point value is on record for CC(C(=O)O)c1ccc2c(c1)CCc1cccnc1O2 (stereo not given) ?
-- reply 182 to 184 °C

-- ask Which melting point value is on record for Cc1cnc(Oc2cccc(C(F)(F)F)c2)c(C(=O)O)c1 ?
-- reply 173 to 175 °C

-- ask Which melting point value is on record for CON=C(C(=O)OC)C1=C(C(=O)c2ccc(F)cc2)CC(C)=C(C)C1 ?
-- reply 97 to 98 °C

-- ask Which melting point value is on record for Cc1cc(C2(C(F)(F)F)CC(c3ccc(S(C)=O)cc3)=NO2)ccc1NC(=O)OC(C)(C)C (stereo not given) ?
-- reply 76.5 to 88.5 °C

-- ask Which melting point value is on record for CS(=O)(=O)c1ccc(Oc2ccccc2CC(=O)O)cc1 ?
-- reply 125 to 127 °C

-- ask Which melting point value is on record for CC(NC=O)c1ccccc1C(F)(F)C(F)(F)c1ccccc1 (stereo not given) ?
-- reply 103 to 105 °C

-- ask Which melting point value is on record for CC(=O)N[C@H]1CC[C@H](Nc2nccc(-n3nnc4ccccc43)n2)CC1 ?
-- reply 287 to 288 °C

-- ask Which melting point value is on record for Oc1ccc(-c2nc3cc(O)cc(-c4ccccc4)c3o2)cc1 ?
-- reply 92 °C

-- ask Which melting point value is on record for Brc1ccn2nc(N3CCOCC3)nc2c1 ?
-- reply 178 to 179 °C

-- ask Which melting point value is on record for N#CC1=C2C(=NC1=O)c1c(Sc3ccc(Br)cc3)ccc3c(Sc4ccc(Br)cc4)ccc2c13 ?
-- reply 262 to 263 °C

-- ask Which melting point value is on record for CC(C)OCC(=O)CC1c2ccccc2C(=O)N1c1ccc2ccc(Cl)nc2n1 (stereo not given) ?
-- reply 200 °C

-- ask Which melting point value is on record for CC(C)(C)NCC(O)COc1ccc(-c2csnn2)cc1 (stereo not given) ?
-- reply 124 to 125 °C

-- ask Which melting point value is on record for CS(=O)CCc1nc2nc[nH]c2c2nc(-c3ccc(-c4ccccc4)cc3)nn12 (stereo not given) ?
-- reply 188 °C

-- ask Which melting point value is on record for CC(=O)Oc1c(C)ccc2c1N=CC1CCCN1C2=O (stereo not given) ?
-- reply 142 to 145 °C

-- ask Which melting point value is on record for CCC(Oc1cccc(OC)c1)C(=O)NCc1ccccc1 (stereo not given) ?
-- reply 63 to 64 °C
